# protocol.description: Caspase-3/7 induction in HepG2 cells by small molecules, qHTS cell viability counter screen (AID 1346981); also: nearly all actives have a fitted effect of over 30% in size
# conditions.used: CellTiter-Fluor fluorescence, 17 h; series mostly up to 92.4 µM
Inconclusive results are not listed. Calls of active or inactive are those of the source. Calls follow the shape of the dose curve; as a rule, active = well fitted cell-killing curve with a large enough effect in the repeat runs; inconclusive = weak or mixed curves, or effect the other way; inactive = flat fitted curve, though single readings scatter.
# output must be one of t (active), f (inactive)

Solved cases (6 shown):
Cc1ccc(-c2ccccc2)cc1; f
O=C(O)Cc1ccccc1Nc1c(Cl)cccc1Cl; f
COC(=O)c1ccccc1C; f
O=S(=O)(O)c1ccc(N=Nc2c(O)ccc3ccccc23)cc1; t
CCCCC/C=C\C/C=C\CCCCCCCC(=O)O; f
Cc1c(C)c2c(c(C)c1OC(=O)c1cccnc1)CC[C@@](C)(CCC[C@H](C)CCC[C@H](C)CCCC(C)C)O2; f

Problem: Can you look up the reported call for `Cc1cc(-n2nc3ccc(Cl)cc3n2)c(O)c(C(C)(C)C)c1` for me?
Result: f

Problem: Can you look up the reported call for `Cc1c(N)cccc1C(F)(F)F` for me?
Result: f

Problem: Can you look up the reported call for `C#C[C@]1(OC(C)=O)CC[C@H]2[C@@H]3CCC4=C/C(=N/O)CC[C@@H]4[C@H]3CC[C@@]21CC` for me?
Result: f

Problem: Can you look up the reported call for `CC(=O)OCC=C(C)C` for me?
Result: f

---

# protocol.description: qHTS RealTime-Glo MT Cell Viability Assay in HEK293 cells - 24 hour (AID 1224886); also: nearly all actives have a fitted effect of over 50% in size
# conditions.used: RealTime-Glo luminescence; series mostly up to 76.8 µM
Results filed as inconclusive are left out. Active and inactive are the calls of the source. Calls come from the whole dose curve; as a rule, active = well fitted cell-killing curve with a large enough effect in the repeat runs; inconclusive = weak or mixed curves, or effect the other way; inactive = flat fitted curve, though single readings scatter.
# output must be one of True for active, False for inactive

Solved cases (5 shown):
O=S(=O)(O)c1ccccc1/C=C/c1ccc(-c2ccc(/C=C/c3ccccc3S(=O)(=O)O)cc2)cc1; False
CC(=O)Oc1cc2c(s1)CCN(C(C(=O)C1CC1)c1ccccc1F)C2 (configuration not stated); False
OC/C=C/CO; False
O=C(O)c1ccc2cc(C(=O)O)ccc2c1; False
CC1(C)[C@@H](O)CC[C@]2(C)[C@H]3C(=O)C=C4[C@@H]5C[C@@](C)(C(=O)O)CC[C@]5(C)CC[C@@]4(C)[C@]3(C)CC[C@@H]12; False

Problem: Can you look up the reported call for `CC[C@H](C)COC(=O)/C=C/c1ccc(N=Cc2ccc(OC)cc2)cc1` for me?
Result: True

Problem: Can you look up the reported call for `COc1ccc(-c2coc3cc(O)ccc3c2=O)cc1` for me?
Result: False

Problem: Can you look up the reported call for CN1CCN2c3ccccc3Cc3ccccc3C2C1 (configuration not stated) for me?
Result: False

Problem: Can you look up the reported call for `OCC(F)(F)F` for me?
Result: False

---

# protocol.description: qHTS assay to identify small molecule antagonists of the estrogen related receptor signaling pathway with the pleiotropic PPARgamma coactivator (PGC) from Tox21 10K library - cell viability counter screen (AID 1224840); also: % is scaled to controls: 0 for no effect and ±100 for the full control effect; nearly all actives have a fitted effect of over 40% in size
# conditions.used: PGC/ERR reporter cells viability, CellTiter-Fluor, 17.5 h; series mostly up to 92.4 µM
# Method: National Center for Advancing Translational Sciences [NCATS] NIH Chemical Genomics Center [NCGC] U.S. Environmental Protection Agency [EPA] National Institutes of Environmental Health Sciences [NIEHS] National Toxicology Program [NTP] […] The PGC/ERR cells were dispensed at 2,000 cells/5 ul/well in 1536-well white plates using a Multidrop dispenser. […] After 30-minute incubation at 37 C/5% CO2, the fluorescence intensity in the plates was measured using a ViewLux plate reader.
Results filed as inconclusive are left out. The source made the active and inactive calls. Calls come from the whole dose curve; as a rule, active = well fitted cell-killing curve with a large enough effect in the repeat runs (not every such curve was filed as active); inconclusive = weak or mixed curves, or effect the other way; inactive = no such curve, though single readings can be large or run the other way.
Reported values of viability change, negative = cytotoxic for individual entries

Problem: Entry NC[C@H]1O[C@H](O[C@H]2[C@H](O[C@@H]3O[C@H](CO)[C@@H](O)[C@H]3O)C(O)[C@H](N)C[C@@H]2N)[C@H](N)[C@@H](O)[C@@H]1O (stereo partly specified) : reported viability change, negative = cytotoxic = ?
Result: 0.247% [at 8.39 µM] (inactive)

Problem: Entry `O=C(O)CN(CCN(CC(=O)O)CC(=O)O)CC(=O)O` : reported viability change, negative = cytotoxic = ?
Result: 1.11% [at 3.27 µM] (inactive)

Problem: Entry `CC(C)(C)CC(C)(C)c1ccc(Nc2ccc(C(C)(C)CC(C)(C)C)cc2)cc1` : reported viability change, negative = cytotoxic = ?
Result: -0.792% [at 8.39 µM] (inactive)

Problem: Entry `CC(C)Cn1cnc2c(N)nc3ccccc3c21` : reported viability change, negative = cytotoxic = ?
Result: 16.3% [at 19 µM] (inactive)

Problem: Entry `O=C(O)O` : reported viability change, negative = cytotoxic = ?
Result: -0.122% [at 8.39 µM] (inactive)

Problem: Entry `C[C@H]1NCc2cc(-c3ccc4c(=O)c(C(=O)O)cn(C5CC5)c4c3OC(F)F)ccc21` : reported viability change, negative = cytotoxic = ?
Result: 5.39% [at 19 µM] (inactive)
